method: Apparent permeability from basal to apical side of human Caco2 cells at 10 uM after 90 mins by LC-MS/MS analysis
measurement-setup: Caco-2
compounds and their reported Papp B→A at 1.5 h, 10 µM
Give your result in ×10⁻⁶ cm/s as a bare value.

# compound, experimental-result
data = [
    ("CC1Cc2cc(S(=O)(=O)c3ccc4c(c3)OCCO4)ccc2N1S(C)(=O)=O (racemic)", 12.1),
    ("CS(=O)(=O)N1Cc2ccc(S(=O)(=O)c3ccc4c(c3)OCCO4)cc2C1", 32.4),
]

[in] Need Papp B→A at 1.5 h, 10 µM of `CS(=O)(=O)N1CCc2cc(S(=O)(=O)c3ccc4c(c3)OCCO4)ccc21` , thanks.
[out] 43

###

target-or-system: Pyruvate kinase PKM (Homo sapiens) (UniProt P14618)
Sequence (P14618 2-531 limits assumed): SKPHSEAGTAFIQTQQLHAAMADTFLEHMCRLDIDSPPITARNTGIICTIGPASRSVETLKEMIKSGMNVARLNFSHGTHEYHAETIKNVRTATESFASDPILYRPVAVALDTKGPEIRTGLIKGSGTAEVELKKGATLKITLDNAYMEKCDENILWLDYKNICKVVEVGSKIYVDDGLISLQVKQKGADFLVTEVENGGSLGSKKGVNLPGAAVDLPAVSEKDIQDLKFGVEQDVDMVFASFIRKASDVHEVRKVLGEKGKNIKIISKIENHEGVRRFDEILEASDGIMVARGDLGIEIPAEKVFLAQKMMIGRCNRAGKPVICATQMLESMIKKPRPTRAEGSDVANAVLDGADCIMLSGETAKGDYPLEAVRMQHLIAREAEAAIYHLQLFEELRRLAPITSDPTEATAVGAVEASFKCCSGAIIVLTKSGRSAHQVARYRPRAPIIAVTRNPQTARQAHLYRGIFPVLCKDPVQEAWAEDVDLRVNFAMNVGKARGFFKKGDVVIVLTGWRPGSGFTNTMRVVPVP
method: Activation of human pyruvate kinase M2 using phosphoenolpyruvate as substrate by kinaseGlo assay relative to control
measured-parameter: max activation
Please state the number and follow it with the unit.

Study these solved cases before continuing.
# compound, max activation
records = [
    ("Cc1cn(S(C)(=O)=O)c2ccc(S(=O)(=O)c3ccc4c(c3)OCCO4)cc12", "154%"),
    ("CCS(=O)(=O)N1Cc2ccc(S(=O)(=O)c3ccc4c(c3)OCCO4)cc2C1", "35%"),
    ("CCS(=O)(=O)N1CCc2cc(S(=O)(=O)c3ccc4c(c3)OCCO4)ccc21", "89%"),
    ("CS(=O)(=O)N1CCc2c1cc(F)c(S(=O)(=O)c1ccc3c(c1)OCCO3)c2F", "78%"),
    ("CC1Cc2cc(S(=O)(=O)c3ccc4c(c3)OCCO4)ccc2N1S(=O)(=O)c1ccccc1 (racemic)", "134%"),
    ("CC(C)CS(=O)(=O)N1Cc2ccc(S(=O)(=O)c3ccc4c(c3)OCCO4)cc2C1", "91.5%"),
    ("CCS(=O)(=O)N1CCc2cc(C(=O)CSc3ccc4c(c3)OCCCO4)ccc21", "149%"),
    ("CS(=O)(=O)N1CCCc2cc(C(=O)CSc3ccc4c(c3)OCCO4)ccc21", "107%"),
    ("O=S(=O)(c1ccc2c(c1)CN(S(=O)(=O)c1ccccc1)C2)c1ccc2c(c1)OCCO2", "140%"),
    ("CCS(=O)(=O)N1CCc2cc(C(=O)CSc3ccc(F)cc3F)ccc21", "171%"),
]

[in] Field: max activation (Pyruvate kinase PKM (Homo sapiens) (UniProt P14618)). Entry: CC1Cc2cc(S(=O)(=O)Nc3ccc4c(c3)OCCO4)ccc2N1S(C)(=O)=O (racemic)
[out] 25.5%

[in] Field: max activation (Pyruvate kinase PKM (Homo sapiens) (UniProt P14618)). Entry: `CS(=O)(=O)N1Cc2ccc(S(=O)(=O)c3ccc4c(c3)OCCO4)cc2C1`
[out] 125%
